- test.summary: physchem
- run.parameters: methanol, organic solvent or mixture
The following compounds are listed with their measured solubility values.

INSERT INTO assay_data (compound, endpoint_name, val) VALUES
  ('CCCCCC(=O)N[C@H](C(=O)N[C@H](C(=O)N[C@@H](CC(C)C)[C@@H](O)CC(=O)N[C@@H](C)C(=O)N[C@@H](CC(C)C)[C@@H](O)CC(=O)O)C(C)C)C(C)C [pepstatin B]', 'solubility', '100 mg/mL');

Exercise: # input compound: CCCCCC(=O)N[C@H](C(=O)N[C@H](C(=O)NC(CC(C)C)C(O)CC(=O)N[C@@H](C)C(=O)NC(CC(C)C)C(O)CC(=O)OC)C(C)C)C(C)C (some centres unmarked) [methyl ester of pepstatin B] ; wanted: its solubility
Solution: 5 to 10 mg/mL
